fold change of Cadaverine concentration values by entry
system: Escherichia coli IAI1; assay: fold change of Cadaverine concentration vs plate DMSO controls (fold change (ratio)); higher = more amine produced, active = hit call of the paper (significant change in both replicates, either direction); settings: incubation time: 27 h, anaerobic, 37 °C
Counter-ions that a name gives are not always drawn.
When you answer, write just the number.

Examples with their reported fold change of Cadaverine concentration follow.
COMPOUND | fold change of Cadaverine concentration
CN1CC(O)c2cc(N=NC(N)=O)c(O)cc21 (stereo not drawn) [Carbazochrome] (20 µM) | 0.914
COc1ccc(C(=O)c2ccc(C)cc2)c(O)c1 [Mexenone] (20 µM) | 1.02
CS(=O)(=O)c1ccc([C@@H](O)[C@@H](CF)NC(=O)C(Cl)Cl)cc1 [Florfenicol] (20 µM) | 0.177
O=C(O)c1cc(/N=N/c2ccc(S(=O)(=O)Nc3ccccn3)cc2)ccc1O [Sulfasalazine] (20 µM) | 1.01
COC(=O)Nc1nc2cc(Sc3ccccc3)ccc2[nH]1 [Fenbendazole] (20 µM) | 0.967

Value sought: fold change of Cadaverine concentration, system Escherichia coli IAI1, item CNCCc1ccccn1 [Betahistine mesylate] (20 µM) . Result: 0.967

I looked up CCCOc1cc(N)ccc1C(=O)OCCN(CC)CC [Propoxycaine hydrochloride] (20 µM) and its fold change of Cadaverine concentration for Escherichia coli IAI1 was 0.967

Reported Escherichia coli IAI1 fold change of Cadaverine concentration for item COc1ccc2[nH]cc(CCNC(C)=O)c2c1 [Melatonin] (20 µM) was 0.999
